PROTOCOL_DETAILS: inhibition of NOD2-driven NF-kB reporter – cell-based, luminescence, uHTS, HEK293 (AID 1566)
CONDITION: HEK293 NOD2/NF-kB luciferase reporter, at 4 µM
Out of some 290,000 compounds screened, about 1,800 (0.62%) were called active. Cut-off read from the data, not from the text of the source: active = inhibition above about 50%; inactive = the rest. The sample holds actives, similar compounds and a random draw of the others, so the mix is not that of the screen.
Labels: active, inactive

COMPOUND: O=S(=O)(Nc1nccs1)c1ccc(NCc2cc(Br)cc(Br)c2O)cc1
CLASSIFICATION: inactive

COMPOUND: CSc1ccc(C(=O)C2CCCN(C(=O)CCc3c(C)nn(C)c3C)C2)cc1 (stereo unspecified)
CLASSIFICATION: active

COMPOUND: Cc1nc(N2CCN(c3ccccn3)CC2)c2c(C)c(C(=O)Nc3ccc(F)cc3F)sc2n1
CLASSIFICATION: inactive

COMPOUND: COC(=O)CSc1nnc(CNC(=O)c2ccc(S(=O)(=O)N3CCCCC3)cc2)n1C
CLASSIFICATION: inactive

COMPOUND: O=C(Nc1nc2ccc(F)cc2s1)c1ccccn1
CLASSIFICATION: active

COMPOUND: CCOc1ccc(C(=O)CSCC(=O)O)cc1
CLASSIFICATION: inactive

COMPOUND: COc1ccccc1N1CCN(C(=O)c2sc3nc(C)nc(N4CCN(c5ccccn5)CC4)c3c2C)CC1
CLASSIFICATION: inactive

COMPOUND: CCOc1ccccc1NC(=S)N(CCN(C)C)C(C)c1ccncc1 (stereo unspecified)
CLASSIFICATION: inactive

COMPOUND: COc1cc(C(=O)N(c2ccc(C)c(C)c2)C2C=CS(=O)(=O)C2)cc(OC)c1OC (stereo unspecified)
CLASSIFICATION: inactive

COMPOUND: Cc1nn(C)c(C)c1CCC(=O)N1CCCC(C(=O)c2cccc(OC(C)C)c2)C1 (stereo unspecified)
CLASSIFICATION: inactive

COMPOUND: O=C(N/N=C/c1cn(-c2ccccc2)nc1-c1cccnc1)c1cccnc1
CLASSIFICATION: inactive

COMPOUND: O=C(CSc1nnnn1C1CCCCC1)NNC(=O)c1ccco1
CLASSIFICATION: inactive

COMPOUND: CC1CCCN(c2ccc3nc4ccccc4c(=O)n3n2)C1 (stereo unspecified)
CLASSIFICATION: inactive

COMPOUND: Cc1ccc2[nH]c3c(N4CCN(Cc5ccc6c(c5)OCO6)CC4)ncnc3c2c1
CLASSIFICATION: inactive

COMPOUND: O=C(C1=C(O)C(=O)N(c2nccs2)C1c1ccccc1)c1cc2ccccc2o1 (stereo unspecified)
CLASSIFICATION: inactive

COMPOUND: O=C(NC1CCCc2ccccc21)c1ccc([N+](=O)[O-])cc1 (stereo unspecified)
CLASSIFICATION: inactive

COMPOUND: Cc1ccc(C)c(OCC(=O)Nc2nc3ccc([N+](=O)[O-])cc3s2)c1
CLASSIFICATION: inactive

COMPOUND: Cc1ccc2nc(-c3ccccc3)cn2c1
CLASSIFICATION: inactive

COMPOUND: Cc1cccc(C(=O)c2cnc3ccccc3c2-c2ccccc2)c1
CLASSIFICATION: inactive

COMPOUND: CCCNC(=S)N1CCC(C(=O)c2ccc(OC)cc2)CC1
CLASSIFICATION: inactive

COMPOUND: Cc1nc(N2CCN(c3ccccn3)CC2)c2c(C)c(C(=O)Nc3ccc(Cl)cc3)sc2n1
CLASSIFICATION: inactive

COMPOUND: Cc1ccc2nc(NC(=O)CSCC(=O)OCC(=O)c3ccccc3)sc2c1
CLASSIFICATION: active

COMPOUND: COc1ccc(Cl)cc1NC(=S)Nc1ccccc1C
CLASSIFICATION: inactive

COMPOUND: Oc1ccc(Br)cc1CNc1nccs1
CLASSIFICATION: inactive

COMPOUND: CCCNC(=O)CCCN1C(=O)c2ccccc2Sc2ncccc21
CLASSIFICATION: inactive

COMPOUND: O=C1CCCN2N=C(SCC(=O)Nc3cccc(Cl)c3)SC2=N1
CLASSIFICATION: inactive

COMPOUND: S=C(NCc1ccccc1)Nc1cccc2cnccc12
CLASSIFICATION: active

COMPOUND: Cc1ccc2nc(NC(=O)CCCC(=O)O)sc2c1
CLASSIFICATION: active

COMPOUND: CCOC(=O)c1sc2ccccc2c1OC(=O)c1ccccc1OC
CLASSIFICATION: inactive

COMPOUND: O=C1NCC(CN(c2ccccc2)c2ccccc2)O1 (stereo unspecified)
CLASSIFICATION: inactive

COMPOUND: COC(=O)c1ccc2nc(NC(=O)CSCC(=O)OCC(=O)c3ccccc3)sc2c1
CLASSIFICATION: inactive

COMPOUND: CN(c1cc(=O)n2ccccc2n1)C1CCCCC1
CLASSIFICATION: inactive

COMPOUND: CSc1ccc(C(=O)C2CCCN(C(=O)CCc3cnn(C)c3)C2)cc1 (stereo unspecified)
CLASSIFICATION: inactive

COMPOUND: O=S(=O)(c1ccc(NCc2ccc(F)cc2)nc1)N1CCCC1
CLASSIFICATION: inactive

COMPOUND: COc1ccccc1N1CCN(C(=O)CSc2nnc3c4ccccc4n(CC(=O)O)c3n2)CC1
CLASSIFICATION: inactive

COMPOUND: CN(c1ccc2nc3ccccc3c(=O)n2n1)C1CCCCC1
CLASSIFICATION: active

COMPOUND: CC(=O)CCSc1ncnc2sc(-c3ccccc3)cc12
CLASSIFICATION: inactive

COMPOUND: Nc1nc(-c2cccs2)c(CC(=O)O)s1
CLASSIFICATION: inactive

COMPOUND: Oc1c(Br)cc(Br)cc1CNc1nccs1
CLASSIFICATION: active

COMPOUND: O=C(Nc1cccc([N+](=O)[O-])c1)Nc1ccc2c(c1)CCC2
CLASSIFICATION: inactive

COMPOUND: Cc1c(C(=O)N2CCN(c3ccccc3)CC2)sc2ncnc(N3CCN(c4ccccn4)CC3)c12
CLASSIFICATION: inactive

COMPOUND: Cc1ccc2nc(NC(=O)CCCc3nc4ccccc4s3)sc2c1
CLASSIFICATION: inactive

COMPOUND: CCOC(=O)c1cccc(NC(=O)COC)c1
CLASSIFICATION: inactive

COMPOUND: Cc1ccc(S(=O)(=O)Nc2ccccc2C(=O)N2CCN(C)CC2)cc1
CLASSIFICATION: inactive

COMPOUND: Cc1ccc(C)c(C(=O)CSc2n[nH]c(-c3ccncc3)n2)c1
CLASSIFICATION: inactive

COMPOUND: COC(=O)COc1ccc(S(=O)(=O)N2CCCCC2)cc1[N+](=O)[O-]
CLASSIFICATION: inactive

* * *

PROTOCOL_DETAILS: inhibition of NOD2-driven NF-kB reporter – cell-based, luminescence, uHTS, HEK293 (AID 1566)
CONDITION: HEK293 NOD2/NF-kB luciferase reporter, at 4 µM, stronger effect = higher value
About 1,800 (0.62%) of roughly 290,000 compounds were called active. For the sample, actives were picked, then their nearest neighbours and some compounds at random.
Rule: true for inhibition not less than 20%, false for anything less.

COMPOUND: Cc1ccc(NC(=O)c2cc3ccccc3oc2=O)cc1S(=O)(=O)N(C)C
CLASSIFICATION: true
--
COMPOUND: Cc1ccc(SCCN2CCN(CC(C)C)CCC2=O)cc1
CLASSIFICATION: false
--
COMPOUND: COCCCN1C(=O)C(O)=C(C(=O)c2ccco2)C1c1cccc(Br)c1 (stereo unspecified)
CLASSIFICATION: false
--
COMPOUND: Cc1ccc(NC(=O)c2cc3ccccc3o2)cc1S(=O)(=O)N(C)C
CLASSIFICATION: false
--
COMPOUND: O=c1cc(CSc2nnc(COc3ccc(Cl)cc3)o2)c2ccccc2[nH]1
CLASSIFICATION: false
--
COMPOUND: COc1ccc(CN(C)S(=O)(=O)c2nnc(NC(=O)c3cccc(OC)c3)s2)cc1
CLASSIFICATION: true

* * *

PROTOCOL_DETAILS: inhibition of NOD2-driven NF-kB reporter – cell-based, luminescence, uHTS, HEK293 (AID 1566)
CONDITION: HEK293 NOD2/NF-kB luciferase reporter, at 4 µM
Among all 290,000 compounds or so, about 1,800 (0.62%) were called active. No stated cut-off is given here; in the data, active means inhibition above about 50%; inactive means the rest. This is one part of a sample in which actives are shown more often than they occur.
Labels: T for active, F for inactive

MOLECULE: Cc1cc(C=C2C(=O)c3ccccc3C2=O)c(C)n1-c1cccc(C(=O)O)c1
CLASSIFICATION: F

MOLECULE: Cc1cc(C=C2C(=O)c3ccccc3C2=O)c(C)n1-c1ccc(Cl)cc1
CLASSIFICATION: F

MOLECULE: O=C1c2ccccc2C(=O)c2c1oc(C(F)(F)F)c2C(=O)c1ccccc1
CLASSIFICATION: T

MOLECULE: Cc1ccccc1N/N=C/c1sc(=O)n(Cc2cccc(C(=O)O)c2)c1Cl
CLASSIFICATION: T

MOLECULE: CC(=O)O/N=C/c1c(Cl)n(C)c2ccccc12
CLASSIFICATION: F

MOLECULE: COc1ccccc1NC(=O)c1cc2n(n1)C(C(F)(F)F)CC(c1ccc3c(c1)OCO3)N2 (stereo not given)
CLASSIFICATION: F

MOLECULE: Cc1cc(C=C2C(=O)CCCC2=O)c(C)n1-c1ccccc1
CLASSIFICATION: F

MOLECULE: Cc1nnc(SCC(=O)Nc2cccc([N+](=O)[O-])c2)n1CC1CCCO1 (stereo not given)
CLASSIFICATION: F

MOLECULE: O=C(O)c1cccc(Cn2c(Cl)c(/C=N/Nc3ccccc3)sc2=O)c1
CLASSIFICATION: F

MOLECULE: Cc1cc(/C=C2\Cc3ccccc3C2=O)c(C)n1-c1ccccc1
CLASSIFICATION: T
